Tested System: KlLeu4 (Kluyveromyces lactis, UniProt Q6CIW1)
Construct: native untagged enzyme in whole cell extract of the Klleu4bisΔ single mutant; homodimer
Sequence (Q6CIW1 entry or part of it): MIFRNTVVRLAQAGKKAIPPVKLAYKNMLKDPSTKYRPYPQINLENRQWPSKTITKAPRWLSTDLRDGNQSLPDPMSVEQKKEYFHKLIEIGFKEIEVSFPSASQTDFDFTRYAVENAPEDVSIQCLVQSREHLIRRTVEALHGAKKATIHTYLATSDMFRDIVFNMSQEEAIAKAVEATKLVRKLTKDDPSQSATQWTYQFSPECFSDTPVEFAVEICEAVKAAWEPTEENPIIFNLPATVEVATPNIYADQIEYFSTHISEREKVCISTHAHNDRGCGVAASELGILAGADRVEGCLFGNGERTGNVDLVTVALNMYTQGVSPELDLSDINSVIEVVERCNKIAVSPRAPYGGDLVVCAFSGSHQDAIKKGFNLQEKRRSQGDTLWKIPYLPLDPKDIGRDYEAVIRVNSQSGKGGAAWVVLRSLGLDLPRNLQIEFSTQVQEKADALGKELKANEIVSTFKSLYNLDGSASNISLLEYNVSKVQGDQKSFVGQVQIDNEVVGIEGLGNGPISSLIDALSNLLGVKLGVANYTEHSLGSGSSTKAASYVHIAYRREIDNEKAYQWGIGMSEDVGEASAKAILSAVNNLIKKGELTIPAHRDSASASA
Assay Summary: α-IPMS activity in whole cell extract, DTNB assay […] nm
Assay Conditions: 0.25 mM acetyl-CoA, 10 mM α-KIV, 50 mM phosphate pH 7.5, 140 mM KCl, 4 mM MgCl2, 30 °C
Reported Endpoint: pIC50
Conceptually, pIC50 converts a concentration in mol/L into minus its log10.

Print KlLeu4 (Kluyveromyces lactis, UniProt Q6CIW1) pIC50 for CC(C)C[C@H](N)C(=O)O . 4.70

These entries and their values trace back to paper PMC7418496.
